Reference source for all entries: the supplement of paper PMC7877785

Assay: self-splicing fitness, log relative to wild type (ln ratio); higher = more splicing; Tetrahymena group I intron in knt gene, E. coli kanamycin selection, DiMSum; sequences stand for … in CUCUCU…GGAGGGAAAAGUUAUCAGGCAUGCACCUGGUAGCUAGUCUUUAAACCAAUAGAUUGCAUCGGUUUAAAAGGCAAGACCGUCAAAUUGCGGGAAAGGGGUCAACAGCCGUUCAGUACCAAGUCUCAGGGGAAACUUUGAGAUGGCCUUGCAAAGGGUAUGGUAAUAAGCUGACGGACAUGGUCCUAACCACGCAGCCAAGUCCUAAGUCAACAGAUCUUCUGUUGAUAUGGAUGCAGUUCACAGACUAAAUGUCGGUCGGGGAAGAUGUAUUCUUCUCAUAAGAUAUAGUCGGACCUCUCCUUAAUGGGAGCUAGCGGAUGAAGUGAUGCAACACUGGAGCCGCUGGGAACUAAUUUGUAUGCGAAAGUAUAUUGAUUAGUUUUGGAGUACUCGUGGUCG;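 also: selection with 25 µg/mL kanamycin versus none on LB agar overnight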
Details: 37 °C
Label scheme for self-splicing fitness (ln): lower than -0.8 is N, -0.8 and above is Y.

Example cases with answers are listed next.
GCUCAGCAAUAUUACGGCUC ... Y
GAUCAGCAAUAUUACGAAGU ... Y
AAGCAGCAAUAUUACGACCA ... Y

Request: Does the reported self-splicing fitness (ln) for AUGUAGCAAUAUUACGCGUG fall at or above the -0.8 mark?
Response: N

Request: Does the reported self-splicing fitness (ln) for UACGAGCAAUAUUACGACGU fall at or above the -0.8 mark?
Response: N

Request: Does the reported self-splicing fitness (ln) for GAGCAGCAAUAUUACGGCAA fall at or above the -0.8 mark?
Response: Y

Request: Does the reported self-splicing fitness (ln) for AUAGAGCAAUAUUACGUUAA fall at or above the -0.8 mark?
Response: N

Request: Does the reported self-splicing fitness (ln) for AACCAGCAAUAUUACGUGGG fall at or above the -0.8 mark?
Response: N

Request: Does the reported self-splicing fitness (ln) for UCUUAGCAAUAUUACGUUUG fall at or above the -0.8 mark?
Response: N

Request: Does the reported self-splicing fitness (ln) for CUUCAGCAAUAUUACGCAUA fall at or above the -0.8 mark?
Response: N

* * *

Test: self-splicing fitness, log relative to wild type (ln ratio); higher = more splicing; Tetrahymena group I intron in knt gene, E. coli kanamycin selection, DiMSum; sequences stand for … in CUCUCU…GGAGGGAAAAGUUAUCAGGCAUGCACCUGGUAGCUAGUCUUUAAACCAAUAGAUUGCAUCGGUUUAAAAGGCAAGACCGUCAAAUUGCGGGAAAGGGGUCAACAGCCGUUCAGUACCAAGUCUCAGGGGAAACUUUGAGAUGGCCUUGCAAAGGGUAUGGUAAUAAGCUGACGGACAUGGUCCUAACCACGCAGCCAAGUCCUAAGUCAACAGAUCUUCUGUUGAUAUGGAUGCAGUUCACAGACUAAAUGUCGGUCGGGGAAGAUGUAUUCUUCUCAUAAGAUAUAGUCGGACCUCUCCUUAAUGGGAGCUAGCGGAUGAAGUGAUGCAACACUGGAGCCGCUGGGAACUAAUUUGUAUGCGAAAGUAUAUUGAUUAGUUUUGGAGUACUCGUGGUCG
Details: 30 °C
The class of a record is decided solely by its measured self-splicing fitness (ln); consult class A = under -3, class B = from -3 up to -1, class C = -1 and over

Example cases with answers are listed next.
GUUGAGCAAUAUUACGCACA ... class B
GGACAGCAAUAUUACGUUAA ... class C
CCGCAGCAAUAUUACGAUAG ... class C

Request: For the record AGACAGCAAUAUUACGACUA , report the class its self-splicing fitness (ln) corresponds to.
Response: class C

Request: For the record CGCGAGCAAUAUUACGUCAA , report the class its self-splicing fitness (ln) corresponds to.
Response: class B

* * *

Assay: self-splicing fitness, log relative to wild type (ln ratio); higher = more splicing; Tetrahymena group I intron in knt gene, E. coli kanamycin selection, DiMSum; sequences stand for … in CUCUCU…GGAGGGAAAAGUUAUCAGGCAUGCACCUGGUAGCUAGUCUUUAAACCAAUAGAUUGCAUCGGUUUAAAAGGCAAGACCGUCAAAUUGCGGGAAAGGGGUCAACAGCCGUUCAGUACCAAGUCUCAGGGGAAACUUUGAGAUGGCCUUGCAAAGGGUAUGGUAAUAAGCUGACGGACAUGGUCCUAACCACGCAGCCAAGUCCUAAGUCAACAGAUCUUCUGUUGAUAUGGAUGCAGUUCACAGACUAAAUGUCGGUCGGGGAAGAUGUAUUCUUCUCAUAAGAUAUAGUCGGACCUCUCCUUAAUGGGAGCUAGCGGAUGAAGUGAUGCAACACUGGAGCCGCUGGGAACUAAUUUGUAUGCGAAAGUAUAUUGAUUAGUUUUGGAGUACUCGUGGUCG
Details: 37 °C
Please provide measured self-splicing fitness (ln) for the entries that follow.
One number for each entry.

Reference set (2 entries):
UUAAAGCAAUAUUACGUGCC ... -0.509
AUCUAGCAAUAUUACGAACC ... -0.855

Each sequence below has a reported value. Please supply its self-splicing fitness (ln).
1. UUAAAGCAAUAUUACGCUGG
2. GCGCAGCAAUAUUACGUUAU
3. GCGUAGCAAUAUUACGGAAG
4. AGACAGCAAUAUUACGUUAC
5. AAUCAGCAAUAUUACGCUAU
6. AGACAGCAAUAUUACGCCCA

Response:
-0.152
-0.0311
-1.98
-1.34
0.0833
0.432

* * *

Assay: self-splicing fitness, log relative to wild type (ln ratio); higher = more splicing; Tetrahymena group I intron in knt gene, E. coli kanamycin selection, DiMSum; sequences stand for … in CUCUCU…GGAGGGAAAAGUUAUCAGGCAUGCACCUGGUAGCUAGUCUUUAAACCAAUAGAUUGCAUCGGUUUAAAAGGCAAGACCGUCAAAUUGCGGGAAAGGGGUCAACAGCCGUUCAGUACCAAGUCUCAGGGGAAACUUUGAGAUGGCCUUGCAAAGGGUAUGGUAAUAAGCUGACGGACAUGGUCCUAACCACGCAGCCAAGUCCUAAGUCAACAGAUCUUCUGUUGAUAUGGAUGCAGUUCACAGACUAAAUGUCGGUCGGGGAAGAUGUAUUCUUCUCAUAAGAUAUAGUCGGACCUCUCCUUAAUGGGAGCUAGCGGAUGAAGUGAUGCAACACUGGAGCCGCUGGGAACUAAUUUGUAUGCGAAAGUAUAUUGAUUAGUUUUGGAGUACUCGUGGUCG
Details: 37 °C
Please provide measured self-splicing fitness (ln) for the entries that follow.

Each sequence below has a reported value. Please supply its self-splicing fitness (ln).
1. AUUGAGCAAUAUUACGUAGA
2. AUGGAGCAAUAUUACGUCGG

Response:
[-2.38, -1.13]

* * *

Assay: self-splicing fitness, log relative to wild type (ln ratio); higher = more splicing; Tetrahymena group I intron in knt gene, E. coli kanamycin selection, DiMSum; sequences stand for … in CUCUCU…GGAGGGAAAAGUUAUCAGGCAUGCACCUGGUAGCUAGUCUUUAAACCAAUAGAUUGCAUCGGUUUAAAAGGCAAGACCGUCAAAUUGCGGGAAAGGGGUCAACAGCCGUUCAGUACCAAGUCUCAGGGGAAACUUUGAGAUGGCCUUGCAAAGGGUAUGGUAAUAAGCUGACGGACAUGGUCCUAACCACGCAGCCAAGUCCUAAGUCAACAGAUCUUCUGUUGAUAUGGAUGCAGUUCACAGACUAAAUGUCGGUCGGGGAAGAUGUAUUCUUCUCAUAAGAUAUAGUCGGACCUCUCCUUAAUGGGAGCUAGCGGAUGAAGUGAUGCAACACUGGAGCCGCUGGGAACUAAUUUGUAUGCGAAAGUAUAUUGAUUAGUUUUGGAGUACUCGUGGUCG
Details: 37 °C
Label scheme for self-splicing fitness (ln): lower than -2 is NO, -2 and above is YES.

Example cases with answers are listed next.
AAUCAGCAAUAUUACGUUAU ... YES
GUCUAGCAAUAUUACGUAAG ... YES
GGGGAGCAAUAUUACGCGUA ... YES
GAAAAGCAAUAUUACGCUAA ... YES
AGCAAGCAAUAUUACGUCCA ... YES

Request: Does the reported self-splicing fitness (ln) for GGGCAGCAAUAUUACGGUUA fall at or above the -2 mark?
Response: YES

Request: Does the reported self-splicing fitness (ln) for GCCGAGCAAUAUUACGUCGA fall at or above the -2 mark?
Response: YES

Request: Does the reported self-splicing fitness (ln) for GCAGAGCAAUAUUACGGAAG fall at or above the -2 mark?
Response: YES

Request: Does the reported self-splicing fitness (ln) for UGUCAGCAAUAUUACGACCC fall at or above the -2 mark?
Response: YES

Request: Does the reported self-splicing fitness (ln) for GUGAAGCAAUAUUACGUGUG fall at or above the -2 mark?
Response: YES
